Values were extracted from paper PMC8144573.

# SYSTEM NAME: 15N-labeled EH1.1 of AtEH1/Pan1 (amino acids 1-107) for NMR titration (Arabidopsis thaliana)
# METHOD NOTES: NMR titration; 1H,15N HSQC of 15N-labeled EH domain with successive addition of unlabeled peptide up to 1:4 excess; 20 mM MES 6.5, 150 mM NaCl, 2 mM CaCl2; chemical shift perturbations fitted to a binding isotherm; apparent
VALUE KIND: Kd (µM)
Give bare numbers, in µM.

Query string: Sample DPNPFDEDEEIVNPFSK (modifications not checked) — what was its Kd?
Result string: 33
